System: N-type calcium channels (N-channels)
Type: binding, rats or mice
experimental.parameters: omega-conotoxin binding, brain membrane fragments; read-out: N-channel IC50
pIC50: −log10 of the molar value.
measurement.label: pIC50

Incoming: Report measured pIC50; entry is NC[C@H]1O[C@H](O[C@H]2[C@H](O)[C@@H](O[C@H]3O[C@H](CO)[C@@H](O)[C@H](N)[C@H]3O)[C@H](N)C[C@@H]2N)[C@H](O)[C@@H](O)[C@@H]1O
Outgoing: < 4.30

Incoming: Given the compound CN[C@H]1C[C@@H](N)[C@H](O)[C@@H](O[C@@H]2O[C@H](CO)[C@H](O)[C@@H]3OC4(O[C@H]23)O[C@H]([C@@H](N)CO)[C@H](O)[C@H](O)[C@H]4O)[C@@H]1O (stereo partly shown) , write its reported pIC50.
Outgoing: < 3.00

Incoming: State, in one line, measured pIC50 of NC[C@H]1O[C@H](O[C@H]2[C@H](O)[C@@H](O[C@H]3O[C@H](CO)[C@@H](O)[C@H](N)[C@H]3O)[C@H](N)C[C@@H]2N)[C@H](N)C[C@@H]1O
Outgoing: < 4.30

---
Incoming: Please supply the value of reported pIC50 for the item NC[C@@H]1O[C@H](O[C@H]2[C@@H](O)[C@H](O[C@@H]3[C@@H](O)[C@H](N)C[C@H](N)[C@H]3O[C@H]3O[C@H](CO)[C@@H](O)C[C@H]3N)O[C@@H]2CO)[C@H](N)[C@@H](O)[C@@H]1O[C@H]1O[C@H](CO)[C@@H](O)[C@H](O)[C@@H]1O
Outgoing: 4.30
